Origin of values: ChEMBL document CHEMBL1140938

Target: Galanin receptor type 1 (Homo sapiens)
Sequence (P47211 whole entry): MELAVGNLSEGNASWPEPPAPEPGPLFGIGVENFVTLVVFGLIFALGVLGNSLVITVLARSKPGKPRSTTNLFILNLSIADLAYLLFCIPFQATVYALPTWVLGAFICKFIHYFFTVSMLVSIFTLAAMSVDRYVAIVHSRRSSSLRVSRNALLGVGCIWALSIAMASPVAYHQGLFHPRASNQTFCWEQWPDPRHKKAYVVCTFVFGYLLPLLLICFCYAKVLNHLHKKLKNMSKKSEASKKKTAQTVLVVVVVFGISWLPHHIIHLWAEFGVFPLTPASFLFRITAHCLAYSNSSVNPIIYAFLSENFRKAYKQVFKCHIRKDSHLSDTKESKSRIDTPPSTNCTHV
Assay: Displacement of europium labeled galanin from human recombinant GalR1 receptor by time-resolved fluorescence binding assay
READOUT KIND: pKi
# pKi = -log10(concentration in molar units)

CCCCCCCCCCCCCCCCCC(=O)NCCCC[C@H](NC(=O)[C@H](CCCCN)NC(=O)[C@H](CCCCN)NC(=O)[C@@H]1CCCN1C(=O)CNC(=O)[C@H](CC(C)C)NC(=O)[C@H](CC(C)C)NC(=O)[C@H](Cc1ccc(O)cc1)NC(=O)CNC(=O)[C@H](C)NC(=O)[C@H](CO)NC(=O)[C@H](CC(N)=O)NC(=O)[C@H](CC(C)C)NC(=O)[C@@H](NC(=O)[C@H](Cc1c[nH]c2ccccc12)NC(=O)CNC)[C@@H](C)O)C(=O)N[C@@H](CCCCN)C(N)=O ... 8.40
CCCCCCCCCCCC(=O)NCCCC[C@H](NC(=O)[C@H](CCCCN)NC(=O)[C@H](CCCCN)NC(=O)[C@@H]1CCCN1C(=O)CNC(=O)[C@H](CC(C)C)NC(=O)[C@H](CC(C)C)NC(=O)[C@H](Cc1ccc(O)cc1)NC(=O)CNC(=O)[C@H](C)NC(=O)[C@H](CO)NC(=O)[C@H](CC(N)=O)NC(=O)[C@H](CC(C)C)NC(=O)[C@@H](NC(=O)[C@H](Cc1c[nH]c2ccccc12)NC(=O)CNC)[C@@H](C)O)C(=O)N[C@@H](CCCCN)C(N)=O ... 8.85
CCCCCCCCCC(=O)NCCCC[C@H](NC(=O)[C@H](CCCCN)NC(=O)[C@H](CCCCN)NC(=O)[C@@H]1CCCN1C(=O)CNC(=O)[C@H](CC(C)C)NC(=O)[C@H](CC(C)C)NC(=O)[C@H](Cc1ccc(O)cc1)NC(=O)CNC(=O)[C@H](C)NC(=O)[C@H](CO)NC(=O)[C@H](CC(N)=O)NC(=O)[C@H](CC(C)C)NC(=O)[C@@H](NC(=O)[C@H](Cc1c[nH]c2ccccc12)NC(=O)CNC)[C@@H](C)O)C(=O)N[C@@H](CCCCN)C(N)=O ... 8.89

Field: next molecule
The molecule identified as "CNCC(=O)N[C@@H](Cc1c[nH]c2ccccc12)C(=O)N[C@H](C(=O)N[C@@H](CC(C)C)C(=O)N[C@@H](CC(N)=O)C(=O)N[C@@H](CO)C(=O)N[C@@H](C)C(=O)NCC(=O)N[C@@H](Cc1ccc(O)cc1)C(=O)N[C@@H](CC(C)C)C(=O)N[C@@H](CC(C)C)C(=O)NCC(=O)N1CCC[C@H]1C(=O)N[C@@H](CCCCN)C(=O)N[C@@H](CCCCN)C(=O)N[C@@H](CCCCNC(=O)COCCOCCOCCOCCOC)C(=O)N[C@@H](CCCCN)C(N)=O)[C@@H](C)O" registered its pKi at 9.30
